# measuredOn: recombinant human PGHS-1 (COX-1) (Homo sapiens, UniProt P23219)
# Construct: made in house; host or cells: baculovirus/Sf9 insect cells (microsomes)
# Sequence (P23219 24-599): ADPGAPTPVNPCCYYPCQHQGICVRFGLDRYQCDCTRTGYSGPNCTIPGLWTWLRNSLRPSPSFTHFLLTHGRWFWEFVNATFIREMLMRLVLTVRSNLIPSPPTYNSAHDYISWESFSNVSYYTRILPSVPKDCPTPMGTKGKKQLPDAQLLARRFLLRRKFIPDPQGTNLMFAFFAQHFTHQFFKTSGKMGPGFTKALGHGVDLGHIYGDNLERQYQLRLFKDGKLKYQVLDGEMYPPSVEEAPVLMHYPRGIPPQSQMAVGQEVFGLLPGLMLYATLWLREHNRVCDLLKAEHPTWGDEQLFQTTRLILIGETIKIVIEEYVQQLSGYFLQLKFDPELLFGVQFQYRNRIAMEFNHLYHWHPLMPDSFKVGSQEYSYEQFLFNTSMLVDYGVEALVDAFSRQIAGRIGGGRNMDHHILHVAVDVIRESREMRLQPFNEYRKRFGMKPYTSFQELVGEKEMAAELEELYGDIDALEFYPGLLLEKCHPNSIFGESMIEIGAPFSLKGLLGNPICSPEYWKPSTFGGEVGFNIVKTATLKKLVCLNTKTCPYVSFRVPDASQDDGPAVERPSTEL
# testName: Recombinant human PGHS-1 enzyme assay (PGE2 production by EIA)
# Format: biochemical
# assayConditions: 100 uM compound; 60 min preincubation; 10 uM arachidonic acid; read-out: COX-1 (% inhib. @ 100 uM)
Counter-ions that a name gives are not always drawn.
# binarize inhibition at 100 µM: threshold 30% inclusive, high side condition met, low side condition not met

Query: Check if inhibition at 100 µM >= 30% (inclusive). Item: COc1ccc2c(c1)c(Cc1nc(-c3ccc([N+](=O)[O-])cc3)cs1)c(C)n2C(=O)c1ccc(Cl)cc1
Result: condition not met

Query: Check if inhibition at 100 µM >= 30% (inclusive). Item: COc1ccc2c(c1)c(Cc1nc(-c3ccc(F)cc3F)cs1)c(C)n2C(=O)c1ccc(Cl)cc1
Result: condition not met

Query: Check if inhibition at 100 µM >= 30% (inclusive). Item: COc1ccc2c(c1)c(Cc1nc(-c3ccc(Br)cc3)cs1)c(C)n2Cc1ccc(Br)cc1
Result: condition not met

Query: Check if inhibition at 100 µM >= 30% (inclusive). Item: COc1ccc2c(c1)c(Cc1nc(-c3ccc(S(C)(=O)=O)cc3)cs1)c(C)n2C(=O)c1ccc(Cl)cc1 [Example 9, hydrobromide salt]
Result: condition met

Query: Check if inhibition at 100 µM >= 30% (inclusive). Item: COc1ccc2c(c1)c(Cc1nc(-c3cccc(Br)c3)cs1)c(C)n2C(=O)c1ccc(Cl)cc1
Result: condition met

Query: Check if inhibition at 100 µM >= 30% (inclusive). Item: COc1ccc2c(c1)c(Cc1nc(-c3ccc(F)cc3)cs1)c(C)n2C(=O)c1ccc(Cl)cc1
Result: condition met

Query: Check if inhibition at 100 µM >= 30% (inclusive). Item: COc1ccc2c(c1)c(Cc1csc(-c3ccncc3)n1)c(C)n2C(=O)c1ccc(Cl)cc1
Result: condition met

Query: Check if inhibition at 100 µM >= 30% (inclusive). Item: COc1ccc2c(c1)c(Cc1nc(-c3ccc(Br)cc3)cs1)c(C)n2C(=O)c1ccc(Cl)cc1
Result: condition met

Query: Check if inhibition at 100 µM >= 30% (inclusive). Item: COc1ccc2c(c1)c(Cc1csc(-c3cccnc3)n1)c(C)n2C(=O)c1ccc(Cl)cc1
Result: condition met

====

# measuredOn: recombinant human PGHS-2 (COX-2) (Homo sapiens, UniProt P35354)
# Construct: made in house; host or cells: baculovirus/Sf9 insect cells (microsomes)
# Sequence (P35354 18-604): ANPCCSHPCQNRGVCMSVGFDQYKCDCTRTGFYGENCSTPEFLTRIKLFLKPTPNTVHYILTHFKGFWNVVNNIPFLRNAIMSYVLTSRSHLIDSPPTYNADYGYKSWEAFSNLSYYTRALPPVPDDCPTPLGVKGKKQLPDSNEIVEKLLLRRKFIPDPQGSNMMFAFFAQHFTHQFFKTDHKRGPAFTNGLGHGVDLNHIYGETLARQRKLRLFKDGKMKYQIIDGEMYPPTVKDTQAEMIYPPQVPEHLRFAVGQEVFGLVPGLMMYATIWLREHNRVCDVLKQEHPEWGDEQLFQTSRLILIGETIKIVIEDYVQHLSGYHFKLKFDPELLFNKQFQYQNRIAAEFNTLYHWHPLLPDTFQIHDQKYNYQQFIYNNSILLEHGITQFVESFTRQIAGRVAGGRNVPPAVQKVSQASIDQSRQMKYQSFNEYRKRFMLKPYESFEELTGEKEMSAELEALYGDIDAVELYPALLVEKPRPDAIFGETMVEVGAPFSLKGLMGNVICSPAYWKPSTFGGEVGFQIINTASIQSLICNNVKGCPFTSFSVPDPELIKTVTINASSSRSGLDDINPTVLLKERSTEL
# testName: Recombinant human PGHS-2 enzyme assay (PGE2 production by EIA)
# Assay type: biochemical
# assayConditions: 60 min preincubation; 10 uM arachidonic acid
Where a name gives a salt, the structure may show the parent alone.
readoutType: pIC50
Give only the number. pIC50 is defined as minus log10 of concentration in molar units.

Query: Need pIC50, item COc1ccc2c(c1)c(Cc1nc(-c3ccc([N+](=O)[O-])cc3)cs1)c(C)n2Cc1ccc(Br)cc1
Result: 8.15

Query: Need pIC50, item COc1ccc2c(c1)c(Cc1nc(-c3ccc(S(C)(=O)=O)cc3)cs1)c(C)n2C(=O)c1ccc(Cl)cc1 [Example 9, hydrobromide salt]
Result: 7.22

Query: Need pIC50, item COc1ccc2c(c1)c(Cc1nc(-c3ccc(Cl)cc3)cs1)c(C)n2C(=O)c1ccc(Cl)cc1
Result: 7.85

Query: Need pIC50, item COc1ccc2c(c1)c(Cc1nc(-c3ccc4ccccc4c3)cs1)c(C)n2C(=O)c1ccc(Cl)cc1
Result: 8.15

Query: Need pIC50, item COc1ccc2c(c1)c(Cc1nc(-c3ccc(Br)cc3)cs1)c(C)n2C(=O)c1ccc(Cl)cc1
Result: 9.52

Query: Need pIC50, item COc1ccc2c(c1)c(Cc1nc(-c3ccc([N+](=O)[O-])cc3)cs1)c(C)n2C(=O)c1ccc(Cl)cc1
Result: 7.92

Query: Need pIC50, item COc1ccc2c(c1)c(Cc1nc(-c3ccc(F)cc3)cs1)c(C)n2C(=O)c1ccc(Cl)cc1
Result: 7.92

Query: Need pIC50, item COc1ccc2c(c1)c(Cc1nc(-c3cccc(Br)c3)cs1)c(C)n2C(=O)c1ccc(Cl)cc1
Result: 8.10

Query: Need pIC50, item COc1ccc2c(c1)c(Cc1nc(-c3csc4ccccc34)cs1)c(C)n2C(=O)c1ccc(Cl)cc1
Result: 9.00

Query: Need pIC50, item COc1ccc2c(c1)c(Cc1nc(-c3ccc(Cl)cc3)cs1)c(C)n2Cc1ccc(Br)cc1
Result: 8.15

Query: Need pIC50, item COc1ccc2c(c1)c(Cc1csc(-c3cccnc3)n1)c(C)n2C(=O)c1ccc(Cl)cc1
Result: 7.70

Query: Need pIC50, item COc1ccc2c(c1)c(Cc1nc(-c3ccc(Br)cc3)cs1)c(C)n2Cc1ccc(Br)cc1
Result: 7.52

====

# measuredOn: recombinant human PGHS-2 (COX-2) (Homo sapiens, UniProt P35354)
# Construct: made in house; host or cells: baculovirus/Sf9 insect cells (microsomes)
# testName: Recombinant human PGHS-2 enzyme assay (PGE2 production by EIA)
# Assay type: biochemical
# assayConditions: 100 nM compound; 60 min preincubation; 10 uM arachidonic acid
readoutType: inhibition at 0.1 µM (%)
Provide the reading as a plain figure in %.

Query: Look up inhibition at 0.1 µM with recombinant human PGHS-2 (COX-2) (Homo sapiens, UniProt P35354) for this molecule: COc1ccc2c(c1)c(Cc1nc(-c3ccc(O)c([N+](=O)[O-])c3)cs1)c(C)n2C(=O)c1ccc(Cl)cc1
Result: 48

Query: Look up inhibition at 0.1 µM with recombinant human PGHS-2 (COX-2) (Homo sapiens, UniProt P35354) for this molecule: COc1ccc2c(c1)c(Cc1csc(-c3ccncc3)n1)c(C)n2C(=O)c1ccc(Cl)cc1
Result: 77

Query: Look up inhibition at 0.1 µM with recombinant human PGHS-2 (COX-2) (Homo sapiens, UniProt P35354) for this molecule: COc1ccc2c(c1)c(Cc1nc(-c3ccc(F)cc3F)cs1)c(C)n2C(=O)c1ccc(Cl)cc1
Result: 82

Query: Look up inhibition at 0.1 µM with recombinant human PGHS-2 (COX-2) (Homo sapiens, UniProt P35354) for this molecule: COc1ccc2c(c1)c(Cc1nc(-c3cccc([N+](=O)[O-])c3)cs1)c(C)n2C(=O)c1ccc(Cl)cc1
Result: 85
